Listed next: entries and their corresponding Percent Effect.
tested on: Wolbachia pipientis; assay: Anti-Wolbachia Cell-Based Screen; assay type: functional; set-up: scale not given: in the data most compounds retested in dose-response had high values; details: 5 µM
About 13,000 (27%) of roughly 48,000 compounds showed an effect of 50% or more. The list shows a part of the results.
Just the number please, in %, no unit attached.

# count of solved cases: 5
| MOLECULE | Percent Effect (%) |
| --- | --- |
| Cc1ccc(C2(C(=O)N3CCC(n4cc(C(C)O)nn4)CC3)CC2)cc1 (stereo not drawn) | -9.43 |
| CN1CC2(CNCCN(C(=O)Nc3ccccc3)C2)CC1=O.O=C(O)C(F)(F)F (stereo not drawn) | -22.36 |
| O=C(Nc1cccc2c1CCCC2)c1cccnc1N1CCCNCC1 | 136.8 |
| OC[C@@H]1CCCN1c1ccc(-c2nc(CCc3ccccc3)no2)cn1 | 1.286 |
| CC1=C[C@@H](CC#N)[C@H](C(C)C)C[C@H]1CC(=O)N1CCN(C)CC1 | 13.63 |

Fill in reported Percent Effect for this entry: NS(=O)(=O)N1CCc2ccc(NC(=O)Cc3ccccc3F)cc21
-18.89

Fill in reported Percent Effect for this entry: NC(=O)c1cccnc1N1CCN(c2ncnc3c2CCNC3)CC1
-13.85

Fill in reported Percent Effect for this entry: FC(F)c1nnc2ccc(N3CCC4(CCOC4)C3)nn12 (stereo not drawn)
-11.38

Fill in reported Percent Effect for this entry: CN1C(=O)CO[C@H](c2ccc(NC(=O)Nc3ccccc3)cc2)[C@H]1CO
-13.1

Fill in reported Percent Effect for this entry: c1ccc(Cc2noc(-c3ccc(NCC4CCCOC4)nc3)n2)cc1 (stereo not drawn)
130.1

Fill in reported Percent Effect for this entry: Cc1ccc2c(c1)C(NC(=O)N(C)C)CC21CCN(C)CC1.O=C(O)C(F)(F)F (stereo not drawn)
102.1

Fill in reported Percent Effect for this entry: COCC1(CNc2cc(C(C)C)nc(N)n2)CC1
12.37

Fill in reported Percent Effect for this entry: c1ccc(Cc2noc(-c3ccc(NCC4COCCO4)nc3)n2)cc1 (stereo not drawn)
114.1

----------
Listed next: entries and their corresponding Percent Effect.
system: Wolbachia pipientis; experiment: Anti-Wolbachia Cell-Based Screen; type: functional; parameters: scale not given: in the data most compounds retested in dose-response had high values; conditions: 5 µM
Screen size: about 48,000 compounds; about 13,000 (27%) showed an effect of 50% or more. Some of the results follow.
Just the number please, in %, no unit attached.

# count of solved cases: 5
| MOLECULE | Percent Effect / % |
| --- | --- |
| COCCN1CCN(c2ncnc3nc(C)cc(C)c23)CC1 | -19.86 |
| COc1cc2c(cc1OC)C(=O)C(Sc1nncn1C)C2 (configuration not stated) | 119.4 |
| CNc1nc(CNC(=O)Nc2ccccc2-c2noc(C)n2)cs1 | 2.213 |
| COc1cc2c(cc1OC)CN(C(=O)NC(C)c1nncn1C)CC2 (configuration not stated) | -16.43 |
| Cc1c(NCc2cccc(C#N)c2)cccc1S(=O)(=O)NC1CC1 | -25.48 |

Fill in reported Percent Effect for this entry: COCCC1CN(Cc2cn(CCC(N)=O)c3ccccc23)CCO1 (configuration not stated)
-2.901

Fill in reported Percent Effect for this entry: CN1CCN(c2ncnc3c2CCN(Cc2nccn2C)CC3)CC1
-1.995

Fill in reported Percent Effect for this entry: CSc1ccc(OC(C)C(=O)Nc2c(C)n[nH]c2C)cc1 (configuration not stated)
-3.157

Fill in reported Percent Effect for this entry: Cc1[nH]nc(CCC(=O)N2CCOC(CCc3ccccc3)C2)c1C (configuration not stated)
-1.139

Fill in reported Percent Effect for this entry: Cc1ncsc1CCN(C)C(=O)CN1CCOc2ccccc2C1
0.429

Fill in reported Percent Effect for this entry: COc1ccc(C)cc1-n1cnnc1C1CC(=O)N(C)C1 (configuration not stated)
6.21

Fill in reported Percent Effect for this entry: CNS(=O)(=O)CCn1cc(-c2cc3c(cc2OC)CCC3)nn1
-24.83

Fill in reported Percent Effect for this entry: Cc1noc(C)c1-c1cc(CCC2CN(C(=O)C(C)C)CCO2)ncn1 (configuration not stated)
137.5

Fill in reported Percent Effect for this entry: CCN(Cc1ccc2c(c1)OCCO2)C(=O)NCc1csc(C)n1
-4.508

Fill in reported Percent Effect for this entry: N#Cc1cccnc1N1CCCC(CO)(Cc2ccc(F)cc2)C1 (configuration not stated)
-22.45

Fill in reported Percent Effect for this entry: CCC(NC(=O)c1ccc(OC)nn1)c1nc(C(F)(F)F)cs1 (configuration not stated)
-7.754

Fill in reported Percent Effect for this entry: COc1cc2c(cc1OC)C(=O)C(Sc1nnc(C)o1)C2 (configuration not stated)
89.14

Fill in reported Percent Effect for this entry: Cc1cn2c(n1)CCC(NS(=O)(=O)c1cc(C)sc1C)C2 (configuration not stated)
-1.827

Fill in reported Percent Effect for this entry: Cc1cc(C)c2c(N3CCN(Cc4ncccc4C)CC3)ncnc2n1
-39.06

Fill in reported Percent Effect for this entry: Cc1cc2[nH]c(=O)c(=O)[nH]c2cc1S(=O)(=O)NC1CCCCC1
114.9

Fill in reported Percent Effect for this entry: COc1cccc(Cc2nnc(SC3CCOC3=O)o2)c1 (configuration not stated)
-7.418
